Reference source: patent US10947226B2

Here's a batch of compounds along with measured Ki for human RIP1 kinase domain (2-375) (Homo sapiens (Human), UniProt Q13546).

Here is how some compounds turned out for Ki.
[[record]]
compound = "CN1C(=O)[C@H](NC(=O)c2ncn(Cc3ccccc3)n2)CCc2cc(=O)n(C)cc21 (single isomer, unassigned) [Example 8]"
result = "> 10 µM"

[[record]]
compound = "CCn1cc2c(cc1=O)N(C)C(=O)[C@H](NC(=O)c1ncn(Cc3ccccc3F)n1)CC2 (single isomer, unassigned) [Example 21]"
result = "> 10 µM"


Now turn to the next compound.
Q: May I ask what Ki has been recorded for CN1C(=O)[C@H](NC(=O)c2nc3n(n2)[C@H](c2ccccc2F)CC3)CCc2cc(=O)n(C)cc21 (single isomer, unassigned) [Example 12] ?
A: > 10 µM
